# Assay protocol: Potentiometric and pH-dependent spectrophotometric titrations of CuL
# Type: physicochemical
# Experimental context: pH 7.4, converted from log β; read-out: conditional dissociation constant, KD
pKd: −log10 of the molar value.

Molecule | pKd
O=C1CC(c2ccccc2[N+](=O)[O-])[N](C(=O)c2ccccn2)[Cu]([OH])[N]1Cc1ccccn1 (stereo not shown) [[Cu(OH2)(cage)]] | 10.80

Reference source: patent US8440827B2
